- tested system: Inward rectifier potassium channel 2 (Mus musculus) (UniProt P35561)
- Sequence (P35561 whole entry, looked up): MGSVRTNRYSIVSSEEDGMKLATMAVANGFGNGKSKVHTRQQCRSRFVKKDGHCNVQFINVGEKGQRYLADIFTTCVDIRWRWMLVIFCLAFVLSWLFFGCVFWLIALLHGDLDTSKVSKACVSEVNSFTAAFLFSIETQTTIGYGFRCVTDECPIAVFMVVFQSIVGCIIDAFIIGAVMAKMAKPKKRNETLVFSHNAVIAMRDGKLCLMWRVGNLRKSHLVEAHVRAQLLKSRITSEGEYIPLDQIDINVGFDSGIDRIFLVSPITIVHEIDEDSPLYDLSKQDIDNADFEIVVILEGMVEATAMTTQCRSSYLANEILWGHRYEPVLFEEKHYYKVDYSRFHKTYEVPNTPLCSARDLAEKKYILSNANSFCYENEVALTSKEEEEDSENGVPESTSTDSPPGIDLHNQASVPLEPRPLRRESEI
- protocol description: blocks the mouse Kir2.1 inward-rectifier potassium channel (AID 1672);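 also: channel flux triggered by added potassium and thallium sulfate stimulus; B-score of peak minus minimum fluorescence over baseline after thallium stimulus; more negative B-score means stronger Kir2.1 block with less thallium influx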
- condition details: HEK293-Kir2.1, FluxOR thallium flux fluorescence; at 10 µM; stronger effect = lower value
Among all 310,000 compounds or so, about 2,600 (0.84%) were called active. Only a selection was taken, and actives are over-represented in it overall.
Please provide measured B-score for the entries that follow.
Answers are plain numbers.

Solved entries:
- molecule: "CCN(CC(=O)Nc1cc(Cl)ccc1C)C(=O)Cn1c(=O)cnc2ccccc21"
  tested system: "Inward rectifier potassium channel 2 (Mus musculus) (UniProt P35561)"
  B-score: -0.02
- molecule: "Cc1ccc(-c2csc(NC(=O)C3=COCCO3)n2)cc1C"
  tested system: "Inward rectifier potassium channel 2 (Mus musculus) (UniProt P35561)"
  B-score: 0.03
- molecule: "COc1ccc(CCNCc2c(-c3ccccc3)n(C)c3ccccc23)cc1"
  tested system: "Inward rectifier potassium channel 2 (Mus musculus) (UniProt P35561)"
  B-score: -10.9
- molecule: "CC(OC(=O)C1CC(=O)N(Cc2ccccc2)C1)C(=O)Nc1ccccc1[N+](=O)[O-] (centres undefined)"
  tested system: "Inward rectifier potassium channel 2 (Mus musculus) (UniProt P35561)"
  B-score: -1.36
- molecule: "O=C(NCCC1CCCCN1S(=O)(=O)c1cccs1)C(=O)Nc1ccc(F)cc1F (centres undefined)"
  tested system: "Inward rectifier potassium channel 2 (Mus musculus) (UniProt P35561)"
  B-score: -1.66
- molecule: "CCn1c(=O)cc(SCC(=O)NCCC2=CCCCC2)c2ccccc21"
  tested system: "Inward rectifier potassium channel 2 (Mus musculus) (UniProt P35561)"
  B-score: -8.59
- molecule: "CC(C)(C)c1cc2cccnc2n1Cc1ccccc1"
  tested system: "Inward rectifier potassium channel 2 (Mus musculus) (UniProt P35561)"
  B-score: -3.38
- molecule: "COc1ccccc1C(=O)Nc1ccccc1C(=O)Nc1ccccc1"
  tested system: "Inward rectifier potassium channel 2 (Mus musculus) (UniProt P35561)"
  B-score: 1.53
- molecule: "CCCNC(=O)c1onc(CSc2ccc(F)cc2)c1C(=O)NC(C)C"
  tested system: "Inward rectifier potassium channel 2 (Mus musculus) (UniProt P35561)"
  B-score: -1.25
- molecule: "Cc1cccc(Nc2nc(NCCO)nc(N3CCCC3)n2)c1"
  tested system: "Inward rectifier potassium channel 2 (Mus musculus) (UniProt P35561)"
  B-score: 0.27

For each of the molecules below, note its B-score.
1. C=CCc1cc(S(=O)(=O)c2ccc(O)c(CC=C)c2)ccc1O
2. CC(Nc1nc(N2CCCC2)nc2ccccc12)c1ccccc1 (centres undefined)
3. COCCCNC(=S)N(Cc1ccccc1)Cc1ccc(F)cc1

Return:
[-6.7, -4.56, -4.64]

Data credit: PubChem BioAssay AID1672
